This collection of values is drawn from patent US20230122249A1.

molecular target: human TLR7 (Homo sapiens, UniProt Q9NYK1); construct: host or cells: HEK-Blue TLR7 cells (engineered human embryonic kidney cells); assay: Human TLR7 agonist activity (hTLR7 reporter) assay in HEK-Blue TLR7 cells, SEAP readout; format: cell-based; conditions: 18 h treatment, average where assay repeated
Sequence (Q9NYK1 27-1049): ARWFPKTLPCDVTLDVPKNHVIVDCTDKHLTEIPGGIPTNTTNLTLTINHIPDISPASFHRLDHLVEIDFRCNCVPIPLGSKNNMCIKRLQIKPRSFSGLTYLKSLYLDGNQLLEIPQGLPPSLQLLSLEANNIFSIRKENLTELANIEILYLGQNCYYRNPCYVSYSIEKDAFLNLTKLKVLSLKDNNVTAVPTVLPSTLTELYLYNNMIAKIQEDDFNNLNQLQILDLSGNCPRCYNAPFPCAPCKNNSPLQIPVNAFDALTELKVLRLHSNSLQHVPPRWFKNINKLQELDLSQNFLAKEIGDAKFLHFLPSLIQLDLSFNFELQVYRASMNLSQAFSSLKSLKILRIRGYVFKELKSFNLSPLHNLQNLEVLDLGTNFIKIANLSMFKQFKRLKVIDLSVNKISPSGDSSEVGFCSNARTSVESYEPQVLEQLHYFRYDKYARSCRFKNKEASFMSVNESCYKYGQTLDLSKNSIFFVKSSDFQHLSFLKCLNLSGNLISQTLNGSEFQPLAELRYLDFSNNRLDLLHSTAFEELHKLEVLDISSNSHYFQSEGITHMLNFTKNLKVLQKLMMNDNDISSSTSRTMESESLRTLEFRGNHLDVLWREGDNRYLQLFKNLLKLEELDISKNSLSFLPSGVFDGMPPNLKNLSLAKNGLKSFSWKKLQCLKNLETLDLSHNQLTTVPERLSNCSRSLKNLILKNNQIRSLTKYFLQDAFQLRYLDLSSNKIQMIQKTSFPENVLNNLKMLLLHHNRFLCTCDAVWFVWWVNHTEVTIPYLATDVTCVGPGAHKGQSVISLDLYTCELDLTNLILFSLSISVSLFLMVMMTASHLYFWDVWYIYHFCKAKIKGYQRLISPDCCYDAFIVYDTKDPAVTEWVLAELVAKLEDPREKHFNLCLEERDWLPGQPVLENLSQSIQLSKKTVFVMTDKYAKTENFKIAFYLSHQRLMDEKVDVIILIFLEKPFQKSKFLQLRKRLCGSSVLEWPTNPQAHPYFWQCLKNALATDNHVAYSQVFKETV
pEC50: −log10 of the molar value.
measure: pEC50

Take a look at these entries with their results.
Prompt: Fill in the recorded pEC50 for this compound, with human TLR7 (Homo sapiens, UniProt Q9NYK1) as test system: COc1cc(C(=O)N2CC3(CN(C)C3)C2)ccc1Cn1ncc2nc(N)nc(NCC3CC4(CC4)C3)c21
Response: 7.68

Prompt: What is its pEC50 for human TLR7 (Homo sapiens, UniProt Q9NYK1)? Entry: CCC[C@@H](CCO)Nc1nc(N)nc2cnn(Cc3ccc(C(=O)N4CC5(CN(CCO)C5)C4)cc3OC)c12
Response: 6.38

(A) COc1cc(C(=O)N2CC3(CN(C)C3)C2)ccc1Cn1ncc2nc(N)nc(NCc3noc(C)n3)c21
(B) COc1cc(CN2C[C@H]3CNC[C@H]3C2)ccc1Cn1ncc2nc(N)nc(NCC3CC4(C3)CC4(F)F)c21 (stereo partly shown)
Prompt: Form: Entry with minimum pEC50 (choose one): A / B Your answer should be the label attached to the chosen record.
Response: B

(A) CCC[C@@H](CCO)Nc1nc(N)nc2cnn(Cc3ncc(C4=CC5(CCN(C(C)C)CC5)C4)cc3OC)c12
(B) COc1cc(C(=O)NC2CN(C)C2)ccc1Cn1ncc2nc(N)nc(NCC3CC4(CCC4)C3)c21
Prompt: Please indicate which entry, A or B , has the lower recorded pEC50 value. Select an item and report its label.
Response: B
(B: 6.48, A: 7.08)
